- ASSAY NOTES: viability loss with induced miR-34 in A549 – imaging, A549 dox-inducible miR-34, nuclei and caspase counts, primary screen (AID 1347080); note: test concentration not given here
- ASSAY SETUP: A549 miR-34 inducible, Hoechst nuclei count, 48 h; stronger effect = lower value; cell number ratio, induced over uninduced
VALUE TYPE: fold change
Lab note: record just the number, no unit beside it.

// query fold change value for entry Cc1c(C(=O)Nc2ccc(N3CC(C)OC(C)C3)nc2)cccc1-c1ccc(OC(F)(F)F)cc1 (stereo not given) 0.962

Repeat with COc1ccc(C(=O)N2CCN(C(=O)c3ccc4sc(N)nc4c3)CC2)cc1 0.916

Same again, this time with O=C1CN(c2ncnc3nc[nH]c23)CCN1CCc1ccccc1 0.93

Then this molecule: CN(CCn1cccn1)Cc1ccc(-c2nc(-c3cccnc3)cc(=O)[nH]2)cc1 0.951

And for Nc1ncn(C2OC(CO)C(O)C2O)c(=O)n1 (stereo not given) ? 0.707

Entry CN1CCN(NC(=S)Nc2ccc(S(N)(=O)=O)cc2)CC1 please 0.87

What do you have for CCN1CCCC1CNC(=O)c1c(O)c(Cl)cc(Cl)c1OC (stereo not given) ? 1.02

Likewise for CNC1C(O)C(NC)[C@H]2O[C@@]3(O)C(=O)CC(C)O[C@H]3O[C@@H]2C1O (stereo not given in full) ? 1.01

Also need CN(C)C1C(=O)C(C(N)=O)=C(O)[C@@]2(O)C(=O)C3=C(O)c4c(O)ccc(Cl)c4C(O)[C@H]3C[C@@H]12 (stereo not given in full) , thanks. 0.836

What do you get for NC(C(=O)NC1C(=O)N2C(C(=O)O)=C(Cl)CSC12)c1ccccc1 (stereo not given) ? 1.39

Origin of values: PubChem BioAssay
